conditions: in n-propanol, 295.65 K
QUANTITY_MEASURED: solubility (mole fraction)
Returns: the value as a bare number; no unit string appended.

Input line: // lookup solubility (mole fraction) for `O=Cc1cccc([N+](=O)[O-])c1`
Output line: 0.0833

---

details: in acetonitrile, 293.15 K
QUANTITY_MEASURED: solubility (mole fraction)
Returns: the value as a bare number; no unit string appended.

Input line: // lookup solubility (mole fraction) for `O=Cc1cccc([N+](=O)[O-])c1`
Output line: 0.371

---

settings: in cyclohexane, 288.15 K
QUANTITY_MEASURED: solubility (mole fraction)
Returns: the value as a bare number; no unit string appended.

Input line: // lookup solubility (mole fraction) for `O=Cc1cccc([N+](=O)[O-])c1`
Output line: 0.00204

---

settings: in methanol, 290.65 K
QUANTITY_MEASURED: solubility (mole fraction)
Returns: the value as a bare number; no unit string appended.

Input line: // lookup solubility (mole fraction) for `O=Cc1cccc([N+](=O)[O-])c1`
Output line: 0.23

---

conditions: in n-propanol, 293.15 K
QUANTITY_MEASURED: solubility (mole fraction)

Input line: // lookup solubility (mole fraction) for `O=Cc1cccc([N+](=O)[O-])c1`
Output line: 0.0729

---

settings: in methanol, 293.15 K
QUANTITY_MEASURED: solubility (mole fraction)
Returns: the value as a bare number; no unit string appended.

Input line: // lookup solubility (mole fraction) for `O=Cc1cccc([N+](=O)[O-])c1`
Output line: 0.261

---

conditions: in methanol, 288.15 K
QUANTITY_MEASURED: solubility (mole fraction)
Returns: the value as a bare number; no unit string appended.

Input line: // lookup solubility (mole fraction) for `O=Cc1cccc([N+](=O)[O-])c1`
Output line: 0.203

---

conditions: in isopropanol, 280.65 K
QUANTITY_MEASURED: solubility (mole fraction)
Returns: the value as a bare number; no unit string appended.

Input line: // lookup solubility (mole fraction) for `O=Cc1cccc([N+](=O)[O-])c1`
Output line: 0.00997

---

settings: in toluene, 295.65 K
QUANTITY_MEASURED: solubility (mole fraction)
Returns: the value as a bare number; no unit string appended.

Input line: // lookup solubility (mole fraction) for `O=Cc1cccc([N+](=O)[O-])c1`
Output line: 0.31

---

details: in toluene, 273.15 K
QUANTITY_MEASURED: solubility (mole fraction)
Returns: the value as a bare number; no unit string appended.

Input line: // lookup solubility (mole fraction) for `O=Cc1cccc([N+](=O)[O-])c1`
Output line: 0.0957

---

conditions: in acetic acid, 293.15 K
QUANTITY_MEASURED: solubility (mole fraction)
Returns: the value as a bare number; no unit string appended.

Input line: // lookup solubility (mole fraction) for `O=Cc1cccc([N+](=O)[O-])c1`
Output line: 0.182

---

details: in acetone, 300.65 K
QUANTITY_MEASURED: solubility (mole fraction)
Returns: the value as a bare number; no unit string appended.

Input line: // lookup solubility (mole fraction) for `O=Cc1cccc([N+](=O)[O-])c1`
Output line: 0.534

---

conditions: in DMF, 285.65 K
QUANTITY_MEASURED: solubility (mole fraction)
Returns: the value as a bare number; no unit string appended.

Input line: // lookup solubility (mole fraction) for `O=Cc1cccc([N+](=O)[O-])c1`
Output line: 0.447

---

details: in methanol, 275.65 K
QUANTITY_MEASURED: solubility (mole fraction)
Returns: the value as a bare number; no unit string appended.

Input line: // lookup solubility (mole fraction) for `O=Cc1cccc([N+](=O)[O-])c1`
Output line: 0.103

---

conditions: in ethyl acetate, 300.65 K
QUANTITY_MEASURED: solubility (mole fraction)

Input line: // lookup solubility (mole fraction) for `O=Cc1cccc([N+](=O)[O-])c1`
Output line: 0.465

---

conditions: in ethyl acetate, 280.65 K
QUANTITY_MEASURED: solubility (mole fraction)

Input line: // lookup solubility (mole fraction) for `O=Cc1cccc([N+](=O)[O-])c1`
Output line: 0.206

---

conditions: in ethanol, 290.65 K
QUANTITY_MEASURED: solubility (mole fraction)
Returns: the value as a bare number; no unit string appended.

Input line: // lookup solubility (mole fraction) for `O=Cc1cccc([N+](=O)[O-])c1`
Output line: 0.0959

---

conditions: in acetonitrile, 275.65 K
QUANTITY_MEASURED: solubility (mole fraction)
Returns: the value as a bare number; no unit string appended.

Input line: // lookup solubility (mole fraction) for `O=Cc1cccc([N+](=O)[O-])c1`
Output line: 0.183

---

details: in ethanol, 300.65 K
QUANTITY_MEASURED: solubility (mole fraction)
Returns: the value as a bare number; no unit string appended.

Input line: // lookup solubility (mole fraction) for `O=Cc1cccc([N+](=O)[O-])c1`
Output line: 0.161

---

conditions: in isopropanol, 283.15 K
QUANTITY_MEASURED: solubility (mole fraction)
Returns: the value as a bare number; no unit string appended.

Input line: // lookup solubility (mole fraction) for `O=Cc1cccc([N+](=O)[O-])c1`
Output line: 0.0115

---

conditions: in isopropanol, 298.15 K
QUANTITY_MEASURED: solubility (mole fraction)
Returns: the value as a bare number; no unit string appended.

Input line: // lookup solubility (mole fraction) for `O=Cc1cccc([N+](=O)[O-])c1`
Output line: 0.0267

---

conditions: in ethyl acetate, 275.65 K
QUANTITY_MEASURED: solubility (mole fraction)
Returns: the value as a bare number; no unit string appended.

Input line: // lookup solubility (mole fraction) for `O=Cc1cccc([N+](=O)[O-])c1`
Output line: 0.164

---

settings: in acetic acid, 295.65 K
QUANTITY_MEASURED: solubility (mole fraction)
Returns: the value as a bare number; no unit string appended.

Input line: // lookup solubility (mole fraction) for `O=Cc1cccc([N+](=O)[O-])c1`
Output line: 0.206

---

conditions: in acetone, 288.15 K
QUANTITY_MEASURED: solubility (mole fraction)
Returns: the value as a bare number; no unit string appended.

Input line: // lookup solubility (mole fraction) for `O=Cc1cccc([N+](=O)[O-])c1`
Output line: 0.322

---

conditions: in acetonitrile, 285.65 K
QUANTITY_MEASURED: solubility (mole fraction)
Returns: the value as a bare number; no unit string appended.

Input line: // lookup solubility (mole fraction) for `O=Cc1cccc([N+](=O)[O-])c1`
Output line: 0.277

---

settings: in acetone, 275.65 K
QUANTITY_MEASURED: solubility (mole fraction)
Returns: the value as a bare number; no unit string appended.

Input line: // lookup solubility (mole fraction) for `O=Cc1cccc([N+](=O)[O-])c1`
Output line: 0.184

---

details: in methanol, 298.15 K
QUANTITY_MEASURED: solubility (mole fraction)

Input line: // lookup solubility (mole fraction) for `O=Cc1cccc([N+](=O)[O-])c1`
Output line: 0.332

---

settings: in DMF, 275.65 K
QUANTITY_MEASURED: solubility (mole fraction)

Input line: // lookup solubility (mole fraction) for `O=Cc1cccc([N+](=O)[O-])c1`
Output line: 0.347

---

details: in DMF, 288.15 K
QUANTITY_MEASURED: solubility (mole fraction)
Returns: the value as a bare number; no unit string appended.

Input line: // lookup solubility (mole fraction) for `O=Cc1cccc([N+](=O)[O-])c1`
Output line: 0.472

---

settings: in n-propanol, 298.15 K
QUANTITY_MEASURED: solubility (mole fraction)
Returns: the value as a bare number; no unit string appended.

Input line: // lookup solubility (mole fraction) for `O=Cc1cccc([N+](=O)[O-])c1`
Output line: 0.0942

---

details: in n-butanol, 280.65 K
QUANTITY_MEASURED: solubility (mole fraction)
Returns: the value as a bare number; no unit string appended.

Input line: // lookup solubility (mole fraction) for `O=Cc1cccc([N+](=O)[O-])c1`
Output line: 0.0314

---

conditions: in acetonitrile, 300.65 K
QUANTITY_MEASURED: solubility (mole fraction)
Returns: the value as a bare number; no unit string appended.

Input line: // lookup solubility (mole fraction) for `O=Cc1cccc([N+](=O)[O-])c1`
Output line: 0.49

---

conditions: in ethyl acetate, 273.15 K
QUANTITY_MEASURED: solubility (mole fraction)
Returns: the value as a bare number; no unit string appended.

Input line: // lookup solubility (mole fraction) for `O=Cc1cccc([N+](=O)[O-])c1`
Output line: 0.146

---

settings: in methanol, 285.65 K
QUANTITY_MEASURED: solubility (mole fraction)
Returns: the value as a bare number; no unit string appended.

Input line: // lookup solubility (mole fraction) for `O=Cc1cccc([N+](=O)[O-])c1`
Output line: 0.178

Measured values drawn from BigSolDB 2.1 for this set.
